- ASSAY_DETAILS: Confirmatory screen NINDS Rhodamine qHTS for Zika virus inhibitors (AID 1347161); also: nearly all actives have a fitted effect of over 60% in size
- ASSAY_CONDITIONS: purified enzyme assay, Rhodamine110 substrate fluorescence, 15 min; series mostly up to 114 µM
Results filed as inconclusive are left out. The source made the active and inactive calls. Calls follow the shape of the dose curve; as a rule, active = well fitted inhibition curve with a large enough effect; inconclusive = small, poorly fitted or top-dose-only effect; inactive = no such curve, though single readings can be large or run the other way.
Please state which outcome applies, choosing from t (active), f (inactive)

See these solved cases before continuing.
O=C(OC1Cc2c(O)cc(O)cc2OC1c1cc(O)c(=O)c2c(O)c(O)cc(C3Oc4cc(O)cc(O)c4CC3OC(=O)c3cc(O)c(O)c(O)c3)c2c1)c1cc(O)c(O)c(O)c1 (configuration not stated)
t
CC[C@@H](C(=O)[C@H](C)[C@@H](O)[C@H](C)CCc1ccc(C)c(O)c1C(=O)O)C1O[C@@](CC)(C2CC[C@](O)(CC)[C@H](C)O2)C[C@@H]1C (some centres not stated)
t
O=C(OC1Cc2c(O)cc(O)cc2OC1c1cc(O)c(O)c(O)c1)c1cc(O)c(O)c(O)c1 (configuration not stated)
t
CCOC(=O)c1c(-c2ccc(C)cc2)csc1NC(=O)c1cc(-c2ccc(Cl)cc2)on1
f
CCN(Cc1cccc(S(=O)(=O)O)c1)c1ccc(C(=C2C=CC(=[N+](CC)Cc3cccc(S(=O)(=O)O)c3)C=C2)c2ccccc2S(=O)(=O)[O-])cc1
t
CC(C)(C)c1ccc(S(=O)(=O)c2cnc(SCC(=O)Nc3ccc4c(c3)OCCO4)[nH]c2=O)cc1
t

Here is another molecule to look at.
// query Dear colleague, could you share the recorded outcome for Cc1ccc2nc(NS(=O)(=O)c3ccc(Cl)cc3)c(Nc3ccc(C(=O)O)cc3)nc2c1 when you have a moment?
// result t
